From: patent EP0984967B1

- Test name: Cytotoxicity assay ([3H]-methyl thymidine incorporation, cell proliferation)
- Type: cell-based
- Protocol conditions: vero-34, hs-68 or wi-38; 50% inhibitory concentration of cell proliferation, 48 hours with compound then 18 hours [3H]-methyl thymidine; cell line not given
Measured CC50 at 48 h, listed per entry for reference.

For orientation, consider the following solved cases.
Cc1ccccc1CNC(=O)c1ccc2cnccc2n1 [compound #1]    50 to 75 µg/mL
O=C(N[C@@H]1C[C@H]1c1ccccc1)c1ccc2cnccc2n1 (relative stereo) [compound #15]    ~25 µg/mL
O=C(NCc1ccccc1Br)c1ccc2cnccc2n1 [compound #5]    > 100 µg/mL

*Q* Request the reported CC50 at 48 h associated with CC(C)Oc1ccccc1NC(=O)Nc1ccc2cnccc2n1 [compound #46]
*A* ~25 µg/mL

*Q* Request the reported CC50 at 48 h associated with CCOc1ccccc1CNC(=O)c1ccc2cnccc2n1 [compound #9]
*A* ~6.25 µg/mL

*Q* Request the reported CC50 at 48 h associated with O=C(c1ccc2cnccc2n1)N1CCc2ccccc2C1 [compound #20]
*A* > 100 µg/mL

*Q* Request the reported CC50 at 48 h associated with O=C(NCc1cccc(Br)c1)c1ccc2cnccc2n1 [compound #6]
*A* ~50 µg/mL

*Q* Request the reported CC50 at 48 h associated with C=CCNC(=O)c1ccc2cnccc2n1 [compound #24]
*A* 10 to 100 µg/mL

*Q* Request the reported CC50 at 48 h associated with COc1cccc(CNC(=O)c2ccc3cnccc3n2)c1 [compound #12]
*A* > 100 µg/mL

*Q* Request the reported CC50 at 48 h associated with Cc1ccccc1NC(=O)Nc1ccc2cnccc2n1 [compound 56]
*A* > 100 µg/mL

*Q* Request the reported CC50 at 48 h associated with O=C(NCc1ccccc1C(F)(F)F)c1ccc2cnccc2n1 [compound #13]
*A* > 100 µg/mL

*Q* Request the reported CC50 at 48 h associated with C[C@@H](NC(=O)Nc1ccc2cnccc2n1)c1ccccc1 [compound #51]
*A* < 3.15 µg/mL

*Q* Request the reported CC50 at 48 h associated with CC(C)(C)OC(=O)NCCCCNC(=O)Nc1ccc2cnccc2n1 [compound #48]
*A* 3.15 to 6.25 µg/mL

====

- Test name: Cytotoxicity assay ([3H]-methyl thymidine incorporation, cell proliferation)
- Assay type: cell-based
- Protocol conditions: vero-34, hs-68 or wi-38; 50% inhibitory concentration of cell proliferation, 48 hours with compound then 18 hours [3H]-methyl thymidine; cell line not given
Measured CC50 at 48 h, listed per entry for reference.

For orientation, consider the following solved cases.
COc1cccc(OC)c1CNC(=O)c1ccc2cnccc2n1    > 100 µg/mL
CC(NC(=O)c1ccc2cnccc2n1)c1ccccc1 (stereo not shown)    25 to 50 µg/mL
O=C(NCc1ccccc1F)c1ccc2cnccc2n1    ~100 µg/mL

*Q* Request the reported CC50 at 48 h associated with O=C(NCc1ccc(Cl)cc1)c1ccc2cnccc2n1
*A* 6.25 to 10 µg/mL

*Q* Request the reported CC50 at 48 h associated with O=C(NCc1ccccc1)c1ccc2cnccc2n1 [compound #2, N-benzyl-2-(1,6)naphthyridinecarboxamide]
*A* ~50 µg/mL

*Q* Request the reported CC50 at 48 h associated with O=C(NCc1ccccc1Cl)c1ccc2cnccc2n1
*A* ~100 µg/mL

*Q* Request the reported CC50 at 48 h associated with Nc1cccc(F)c1CNC(=O)c1ccc2cnccc2n1
*A* ~25 µg/mL
